As shown below, each of these compounds has a reported IC50 value.
system: human prostate cancer cell line (DU145); assay: MTT assay, tumor cell proliferation inhibition, DU145; assay type: cell-based; settings: DU145, MTT, 72 h; read-out: Tumor inhibition rate (IC50)

| COMPOUND | IC50 |
| --- | --- |
| O=[N+]([O-])c1ccc(COc2ccc(Nc3ncnc4cc5c(cc34)OCCOCCOCCOCCO5)cc2)cc1 [Compound 32] | > 100 µM |
| Fc1ccc(COc2ccc(Nc3ncnc4cc5c(cc34)OCCOCCOCCOCCO5)cc2)cc1 [Compound 26] | > 100 µM |

Q: Any idea what IC50 came out for c1ccc(COc2ccccc2Nc2ncnc3cc4c(cc23)OCCOCCOCCOCCO4)cc1 [Compound 27] on human prostate cancer cell line (DU145)?
A: > 100 µM

Q: Any idea what IC50 came out for Fc1ccc(COc2ccc(Nc3ncnc4cc5c(cc34)OCCOCCO5)cc2)cc1Cl [Compound 15] on human prostate cancer cell line (DU145)?
A: > 100 µM

Q: Any idea what IC50 came out for N#Cc1ccc(COc2cccc(Nc3ncnc4cc5c(cc34)OCCOCCOCCO5)c2)cc1 [Compound 10] on human prostate cancer cell line (DU145)?
A: > 100 µM

Q: Any idea what IC50 came out for Fc1ccc(COc2cccc(Nc3ncnc4cc5c(cc34)OCCOCCO5)c2)cc1Cl [Compound 14] on human prostate cancer cell line (DU145)?
A: 90.1 µM
